Just for reference, patent US20130337564A1 is where these values come from.

# System: human embryonic stem cell line H1
# Test: Dose titration secondary assay: cell number, H1
# Assay type: cell-based
# Measurement context: Homo sapiens, Embryonic stem cell, Conc 5 μM, positive control (Wnt3a/Activin A) normalized to 1.000
# activity at 5 µM values compiled below
Kindly answer with a numeric value in %, unit omitted.

Solved entries (count: 6):
CN(C)CCCn1c2c(c3ccccc31)C1=C(C(=O)NC1=O)N(c1cccc(Cl)c1)C2 ... 76.8
O=C1NC(=O)C(c2cn(CCOCCOCCNC3CCCc4ccccc43)c3ccccc23)=C1c1cn(CCNC2CCCc3ccccc32)c2ccccc12 (stereo not shown) ... 0
Cc1c[nH]c(-c2cnc(NCCNc3ccc(C#N)cn3)nc2-c2ccc(Cl)cc2Cl)n1 ... 88.9
OCCC#Cc1nc(-c2ccc(F)cc2)c(-c2ccncc2)n1CCCc1ccccc1 ... 90.5
CN(CCO)CCCn1nc(C2=C(c3cn(-c4cccnc4)c4ccccc34)C(=O)NC2=O)c2ccccc21 ... 106
O=C1NC(=O)C(c2cn(-c3cccnc3)c3ccccc23)=C1c1cn(CCO)c2ccccc12 ... 116

Ask: Look at this compound and give its reported activity at 5 µM. CC(C)(O)CCn1nc(C2=C(c3cn(-c4cccnc4)c4ccccc34)C(=O)NC2=O)c2ccccc21
Reply: 135

---

# Proliferative Response Total cells values compiled below
# Test system: human embryonic stem cells (H9 line)
# Test: High content screening assay: cell number (proliferative response)
# Format: cell-based
# Measurement context: cell number in the wells analysed for SOX-17 expression
# Procedure: Maintenance of human embryonic stem cells (H9 line) was conducted as described in Example 1. Colonies of cells were maintained in an undifferentiated, pluripotent state with passage on average every four days. […] The human embryonic stem cell lines used were maintained at passage numbers less than passage 50 and routinely evaluated for normal karyotypic phenotype and absence of mycoplasma contamination. […]
Answer using only a numeral; do not append any unit.

Solved entries (count: 5):
NCCCn1nc(C2=C(c3cn(-c4csc5ccccc45)c4ccccc34)C(=O)NC2=O)c2ccccc21 [Compound 4] ... 2914
COc1ccccc1C1=C(c2cn(-c3cccnc3)c3ccccc23)C(=O)NC1=O [Compound 216] ... 5991
O=C1NC(=O)C(c2cn(CCCO)c3ncccc23)=C1c1cn(CCO)cn1 [Compound 183] ... 7
O=C1NC(=O)C(c2cn(CCCO)c3ncccc23)=C1c1cn(CCCO)cn1 [Compound 182] ... 20
COC(=O)c1cncc(-n2cc(C3=C(c4nn(CCO)c5ccccc45)C(=O)NC3=O)c3cc(Cl)ccc32)c1 [Compound 150] ... 7958

Now turn to the next compound.
Ask: Param readout= Proliferative Response Total cells; system= human embryonic stem cells (H9 line); entry= O=C1NC(=O)C(c2cn(-c3cccnc3)c3ccccc23)=C1c1cn(CCO)c2ccccc12 [Compound 206] ; returns value.
Reply: 11886

---

# Test system: cells expressing pluripotency markers derived from human embryonic stem cells
# Test: MTS viability (toxicity) assay of cells expressing pluripotency markers
# Type: cell-based
# Measurement context: cmpd conc 5 μM; MTS on day 4; relative to Activin A + Wnt3a positive control
# Experimental: Derivation and maintenance of cells expressing pluripotency makers was conducted as has been described in Example 2. […] Screening was conducted using test compounds from a proprietary library of small molecules selected for their ability to inhibit GSK-3B enzyme activity. […] For assay, cells expressing pluripotency markers were washed, counted, and plated in normal culture medium at a seeding density of 20,000 cells per well in 96-well clear-bottom, dark-well plates (Costar). […]
Measure: % Control (percentage viability of control) (%)
Kindly answer with a numeric value in %, unit omitted.

CN1CCN(C)CCn2cc(c3ccccc32)C2=C(C(=O)NC2=O)c2cn(c3ccccc23)CC1 ... 96.1

Ask: Look at this compound and give its reported % Control (percentage viability of control). O=C1NC(=O)C2=C1c1cn(c3ccccc13)CCOCCOCCN(Cc1cccs1)CCn1cc2c2ccccc21
Reply: 75.0

Ask: Look at this compound and give its reported % Control (percentage viability of control). O=C1NC(=O)C2=C1c1cn(c3ccccc13)CCOCCOCCN(Cc1cccc3ccccc13)CCn1cc2c2ccccc21
Reply: 92.7

Ask: Look at this compound and give its reported % Control (percentage viability of control). CCN1CCOCCOCCn2cc(c3ccccc32)C2=C(C(=O)NC2=O)c2cn(c3ccccc23)CC1
Reply: 19.7

---

# viability at 4 days, 5 μM values compiled below
# Test: MTS viability (toxicity) assay of cells expressing pluripotency markers
# Type: cell-based, human
# Measurement context: human, cmpd conc 5 μM; MTS on day 4; relative to Activin A + Wnt3a positive control; read-out: % Control (percentage viability of control)
Kindly answer with a numeric value in %, unit omitted.

Solved entries (count: 10):
O=C1NC(=O)C(c2nn(CCO)c3ccccc23)=C1c1cn(-c2cncnc2)c2ccccc12 [Compound 226] ... 86.7
CC(C)(O)CCn1nc(C2=C(c3cn(-c4cccnc4)c4ccccc34)C(=O)NC2=O)c2ccccc21 [Compound 223] ... 93.9
CN(C)c1cccc(-n2cc(C3=C(c4nn(CCO)c5ccccc45)C(=O)NC3=O)c3ccccc32)c1 [Compound 145] ... 68.4
CN(CCO)CCCn1nc(C2=C(c3cn(-c4cccnc4)c4ccccc34)C(=O)NC2=O)c2ccccc21 [Compound 198] ... 83.8
O=C1NC(=O)C(c2nn(CCCO)c3ccccc23)=C1c1cn(-c2cccnc2)c2ccc(Cl)cc12 [Compound 52] ... 40.1
O=C1NC(=O)C2=C1Nc1cccc(c1)OCCC/C=C\CCCOc1cccc2c1 [Compound 233] ... 0
COC(=O)c1cncc(-n2cc(C3=C(c4nn(CCO)c5ccccc45)C(=O)NC3=O)c3cc(Cl)ccc32)c1 [Compound 150] ... 84.9
Cc1c[nH]c(-c2cnc(NCCNc3ccc(C#N)cn3)nc2-c2ccc(Cl)cc2Cl)n1 [Compound 221] ... 82.3
O=C1NC(=O)C(c2cn(CCOCCOCCO)c3ccccc23)=C1c1cn(CCO)c2ccccc12 [Compound 110] ... 98.5
OCCC#Cc1nc(-c2ccc(F)cc2)c(-c2ccncc2)n1CCCc1ccccc1 [Compound 158] ... 96.2

Ask: Look at this molecule and give its reported viability at 4 days, 5 μM. CN(C)c1ccc(-n2cc(C3=C(c4nn(CCO)c5ccccc45)C(=O)NC3=O)c3cc(Cl)ccc32)cn1 [Compound 148]
Reply: 3.8

Ask: Look at this molecule and give its reported viability at 4 days, 5 μM. O=C1NC(=O)C(c2cn(CCOCCOCCNC3CCCc4ccccc43)c3ccccc23)=C1c1cn(CCNC2CCCc3ccccc32)c2ccccc12 (centres unmarked) [Compound 144]
Reply: 2.5

Ask: Look at this molecule and give its reported viability at 4 days, 5 μM. CN(C)CCCn1c2c(c3ccccc31)C1=C(C(=O)NC1=O)N(c1cccc(Cl)c1)C2 [Compound 101]
Reply: 95.9

Ask: Look at this molecule and give its reported viability at 4 days, 5 μM. O=C1NC(=O)C(c2cn(-c3cccnc3)c3ccccc23)=C1c1cn(CCO)c2ccccc12 [Compound 206]
Reply: 90.2

---

# Proliferative Response Total cells values compiled below
# Tested on: human embryonic stem cells (H9 line)
# Test: High content screening assay: cell number (proliferative response)
# Type: cell-based
# Measurement context: cell number in the wells analysed for SOX-17 expression
Answer using only a numeral; do not append any unit.

Ask: Param readout= Proliferative Response Total cells; system= human embryonic stem cells (H9 line); entry= CN(C)CCCn1nc(C2=C(c3cn(-c4cccc5ccccc45)c4ccccc34)C(=O)NC2=O)c2ccccc21 [Compound 8] ; returns value.
Reply: 5706.5

Ask: Param readout= Proliferative Response Total cells; system= human embryonic stem cells (H9 line); entry= O=C1NC(=O)C2=C1c1cn(c3ccccc13)CCOCCOCCOCCOCCn1cc2c2ccccc21 [Compound 165] ; returns value.
Reply: 2899

Ask: Param readout= Proliferative Response Total cells; system= human embryonic stem cells (H9 line); entry= O=C1NC(=O)C2=C1c1cn(c3ccccc13)CCOCCOCCn1cc2c2ccccc21 [Compound 164] ; returns value.
Reply: 12

Ask: Param readout= Proliferative Response Total cells; system= human embryonic stem cells (H9 line); entry= O=C1NC(=O)C2=C1Nc1cccc(c1)OCCC/C=C\CCCOc1cccc2c1 [Compound 233] ; returns value.
Reply: 6470

---

# System: Sox17 expression in human embryonic stem cell line H1
# Test: Dose titration secondary assay: Sox17 intensity, H1
# Format: cell-based
# Measurement context: 2.5 μM compound
Flag rule - Sox17 Intensity less than 0.4 flags True; the remaining entries get False.

CCN1CCOCCOCCn2cc(c3ccccc32)C2=C(C(=O)NC2=O)c2cn(c3ccccc23)CC1 [Compound 103] ... True

Ask: # check: Sox17 Intensity < 0.4 for O=C1NC(=O)C2=C1c1cn(c3ccccc13)CCOCCOCCN(Cc1cccs1)CCn1cc2c2ccccc21 [Compound 133]
Reply: False

Ask: # check: Sox17 Intensity < 0.4 for CN1CCOCCOCCN(C)CCn2cc(c3ccccc32)C2=C(C(=O)NC2=O)c2cn(c3ccccc23)CC1 [Compound 112]
Reply: False

Ask: # check: Sox17 Intensity < 0.4 for CN1CCN(C)CCn2cc(c3ccccc32)C2=C(C(=O)NC2=O)c2cn(c3ccccc23)CC1 [Compound 111]
Reply: False

Ask: # check: Sox17 Intensity < 0.4 for O=C1NC(=O)C2=C1c1cn(c3ccccc13)CCOCCOCCN(Cc1cccc3ccccc13)CCn1cc2c2ccccc21 [Compound 136]
Reply: True
